- Measured target: recombinant human CXCR2 (Homo sapiens)
- Construct: TEV protease site; Gal4-VP16 transcription factor
- Sequence (P25025 whole entry, the tested form may be a part): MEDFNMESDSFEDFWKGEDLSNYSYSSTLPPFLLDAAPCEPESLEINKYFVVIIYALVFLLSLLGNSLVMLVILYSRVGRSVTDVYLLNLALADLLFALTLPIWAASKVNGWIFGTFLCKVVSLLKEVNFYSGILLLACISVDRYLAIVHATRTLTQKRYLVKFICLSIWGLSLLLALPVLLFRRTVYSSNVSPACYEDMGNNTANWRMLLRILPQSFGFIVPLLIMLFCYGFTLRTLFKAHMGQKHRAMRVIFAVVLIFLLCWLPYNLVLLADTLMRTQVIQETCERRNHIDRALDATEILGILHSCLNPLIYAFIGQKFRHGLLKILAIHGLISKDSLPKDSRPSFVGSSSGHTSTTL
- Assay name: CXCR2 Tango assay
- Format: cell-based
- Experimental context: mean pIC50 of multiple test results; stimulated with 80 nM hCXCL1; reporter gene blue/green emission ratio; read-out: pIC50 (CXCR2 Tango assay) (converted)
Where a name gives a salt, the structure may show the parent alone.
Task for the reader: assign each of the following molecules its reported IC50.

Kindly state the measured IC50 obtained for CC1=CCC[C@H]1NC(=O)Nc1ccc(Cl)c(S(=O)(=O)C2CCC[C@@H]2O)c1O (mixture of isomers) [Compound 51, trifluoroacetic acid salt] with recombinant human CXCR2 (Homo sapiens).
≤ 1 nM

Would you kindly repeat that for CO[C@@H]1CC[C@@H](S(=O)(=O)c2c(Cl)ccc(NC(=O)N[C@@H]3CCC=C3C)c2O)C1 (stereo in doubt) [Compound 143] ?
≤ 1 nM

Would you kindly repeat that for CC(C)(c1ccccn1)S(=O)(=O)c1c(Cl)ccc(NC(=O)NC2CCC=C2Cl)c1O (centres unmarked) [Compound 4, trifluoroacetic acid salt] ?
≤ 10 nM

Would you kindly repeat that for CC1=CCC[C@H]1NC(=O)Nc1ccc(Cl)c(S(=O)(=O)C2(C)CCOCC2)c1O [Compound 69] ?
≤ 1 nM

Would you kindly repeat that for CC1=CCCC1NC(=O)Nc1ccc(Cl)c(S(=O)(=O)C2CC3(CCN(C)CC3)C2)c1O (centres unmarked) [Compound 140] ?
≤ 10 nM

Would you kindly repeat that for CO[C@@H]1CCC[C@H]1S(=O)(=O)c1c(Cl)ccc(NC(=O)N[C@@H]2CCC=C2C)c1O (racemic) [Compound 144, trifluoroacetic acid salt] ?
≤ 1 nM

Would you kindly repeat that for CC1=CCC[C@H]1NC(=O)Nc1ccc(Cl)c(S(=O)(=O)[C@@H]2CCCC[C@H]2O)c1O [Compound 46] ?
≤ 1 nM

Would you kindly repeat that for CC(C)(CF)S(=O)(=O)c1c(Cl)ccc(NC(=O)NC2C=CCC2)c1O (centres unmarked) [Compound 9] ?
≤ 10 nM

Would you kindly repeat that for CC1=CCCC1NC(=O)Nc1ccc(Cl)c(S(=O)(=O)C2(C)CCOCC2)c1O (centres unmarked) [Compound 107] ?
≤ 10 nM

Would you kindly repeat that for CC1=CCCC1NC(=O)Nc1ccc(Cl)c(S(=O)(=O)N2CC(F)C2)c1O (centres unmarked) [Compound 112] ?
≤ 10 nM

Would you kindly repeat that for CC(c1ccccn1)S(=O)(=O)c1c(Cl)ccc(NC(=O)NC2CCC=C2Cl)c1O (centres unmarked) [Compound 26] ?
≤ 10 nM

Would you kindly repeat that for CC1=CCC[C@H]1NC(=O)Nc1ccc(Cl)c(S(=O)(=O)C2(CF)CCOCC2)c1O [Compound 72] ?
≤ 10 nM

Would you kindly repeat that for CC(C)(C)S(=O)(=O)c1c(C#N)ccc(NC(=O)N[C@@H]2CCC=C2Cl)c1O [Compound 94] ?
≤ 1 nM

Would you kindly repeat that for CC1=CCC[C@H]1NC(=O)Nc1ccc(Cl)c(S(=O)(=O)C(C)(C)C2CCOCC2)c1O [Compound 60] ?
≤ 1 nM

Would you kindly repeat that for CC1=CCC[C@H]1NC(=O)Nc1ccc(Cl)c(S(=O)(=O)C(C)c2ncccn2)c1O (some centres unmarked) [Compound 27] ?
≤ 10 nM

Would you kindly repeat that for CCN1CCC(F)(S(=O)(=O)c2c(Cl)ccc(NC(=O)N[C@@H]3CCC=C3Cl)c2O)CC1 [Compound 200] ?
≤ 1 nM

Would you kindly repeat that for CC1=CCC[C@H]1NC(=O)Nc1ccc(Cl)c(S(=O)(=O)[C@H]2C[C@H](N3CCCC3)C2)c1O [Compound 192] ?
≤ 1 nM

Would you kindly repeat that for CC1=CCC[C@H]1NC(=O)Nc1ccc(Cl)c(S(=O)(=O)N2CCC(F)(F)C2)c1O [Compound 88] ?
≤ 1 nM

Would you kindly repeat that for COCC(C)(C)S(=O)(=O)c1c(Cl)ccc(NC(=O)NC2CCC=C2C)c1O (centres unmarked) [Compound 156] ?
≤ 10 nM

Would you kindly repeat that for CC1=CCC[C@H]1NC(=O)Nc1ccc(Cl)c(S(=O)(=O)[C@H]2C[C@H](N3CC[C@@H](F)C3)C2)c1O [Compound 49, trifluoroacetic acid salt] ?
≤ 1 nM

Would you kindly repeat that for CC1=CCC[C@H]1NC(=O)Nc1ccc(Cl)c(S(=O)(=O)N2CCN3CCC[C@@]3(C)C2)c1O [Compound 93, trifluoroacetic acid salt] ?
≤ 10 nM

Would you kindly repeat that for CC1=CCCC1NC(=O)Nc1ccc(Cl)c(S(=O)(=O)N2CCC(F)(F)C2)c1O (centres unmarked) [Compound 114, trifluoroacetic acid salt] ?
≤ 10 nM

Would you kindly repeat that for CN(C)[C@H]1C[C@H](S(=O)(=O)c2c(Cl)ccc(NC(=O)N[C@@H]3CCC=C3Cl)c2O)C1 [Compound 184, trifluoroacetic acid salt] ?
≤ 10 nM
